- experiment: Cytotoxicity against human Huh5-2 cells carrying HCV genotype 1b I389luc-ubi-neo/NS3-3'/5.1 replicon assessed as cell morphological changes after 72 hrs by microscopic analysis
- Assay type: cell-based
- protocol conditions: huh-5-2, 72 h
property label: Activity

CN1c2c(C(=O)Nc3ccc(NS(C)(=O)=O)cc3)nn(-c3ccccc3C(F)(F)F)c2-c2ccccc2S1(=O)=O | Toxic
CN1c2c(C(=O)Nc3ccc(NS(C)(=O)=O)cc3)nn(-c3ccc(F)c(F)c3)c2-c2ccccc2S1(=O)=O | Toxic
CN1c2c(C(=O)Nc3ccc(NS(C)(=O)=O)cc3)nn(-c3cccc(Br)c3)c2-c2ccccc2S1(=O)=O | Toxic
